Source: patent US4451457A

Assay: Acute toxicity, LD50 in mice
Format: in vivo, Mouse
Conditions: in vivo, sc; subcutaneous, male mouse
Method: Each cyclodextrin (α-, β- and γ-) was administered via the following routes to rats and mice and LD50 was measured.
Measured Property: LD50

Compound	LD50
OC[C@H]1O[C@@H]2O[C@H]3[C@H](O)[C@@H](O)[C@@H](O[C@H]4[C@H](O)[C@@H](O)[C@@H](O[C@H]5[C@H](O)[C@@H](O)[C@@H](O[C@H]6[C@H](O)[C@@H](O)[C@@H](O[C@H]7[C@H](O)[C@@H](O)[C@@H](O[C@H]8[C@H](O)[C@@H](O)[C@@H](O[C@H]1[C@H](O)[C@H]2O)O[C@@H]8CO)O[C@@H]7CO)O[C@@H]6CO)O[C@@H]5CO)O[C@@H]4CO)O[C@@H]3CO [β-cyclodextrin]	> 900 mg/kg

LD50 for OC[C@H]1O[C@@H]2O[C@H]3[C@H](O)[C@@H](O)[C@@H](O[C@H]4[C@H](O)[C@@H](O)[C@@H](O[C@H]5[C@H](O)[C@@H](O)[C@@H](O[C@H]6[C@H](O)[C@@H](O)[C@@H](O[C@H]7[C@H](O)[C@@H](O)[C@@H](O[C@H]8[C@H](O)[C@@H](O)[C@@H](O[C@H]9[C@H](O)[C@@H](O)[C@@H](O[C@H]1[C@H](O)[C@H]2O)O[C@@H]9CO)O[C@@H]8CO)O[C@@H]7CO)O[C@@H]6CO)O[C@@H]5CO)O[C@@H]4CO)O[C@@H]3CO [γ-cyclodextrin] ?
> 900 mg/kg

Field entry: OC[C@H]1O[C@@H]2O[C@H]3[C@H](O)[C@@H](O)[C@@H](O[C@H]4[C@H](O)[C@@H](O)[C@@H](O[C@H]5[C@H](O)[C@@H](O)[C@@H](O[C@H]6[C@H](O)[C@@H](O)[C@@H](O[C@H]7[C@H](O)[C@@H](O)[C@@H](O[C@H]1[C@H](O)[C@H]2O)O[C@@H]7CO)O[C@@H]6CO)O[C@@H]5CO)O[C@@H]4CO)O[C@@H]3CO [α-cyclodextrin]
> 900 mg/kg

###

Reported LD50 values for a set of compounds
experiment: Acute toxicity, LD50 in rats; format: in vivo, rat; conditions: in vivo, ip; intraperitoneal, male rat

Compound	LD50
OC[C@H]1O[C@@H]2O[C@H]3[C@H](O)[C@@H](O)[C@@H](O[C@H]4[C@H](O)[C@@H](O)[C@@H](O[C@H]5[C@H](O)[C@@H](O)[C@@H](O[C@H]6[C@H](O)[C@@H](O)[C@@H](O[C@H]7[C@H](O)[C@@H](O)[C@@H](O[C@H]8[C@H](O)[C@@H](O)[C@@H](O[C@H]1[C@H](O)[C@H]2O)O[C@@H]8CO)O[C@@H]7CO)O[C@@H]6CO)O[C@@H]5CO)O[C@@H]4CO)O[C@@H]3CO [β-cyclodextrin]	> 1200 mg/kg
OC[C@H]1O[C@@H]2O[C@H]3[C@H](O)[C@@H](O)[C@@H](O[C@H]4[C@H](O)[C@@H](O)[C@@H](O[C@H]5[C@H](O)[C@@H](O)[C@@H](O[C@H]6[C@H](O)[C@@H](O)[C@@H](O[C@H]7[C@H](O)[C@@H](O)[C@@H](O[C@H]8[C@H](O)[C@@H](O)[C@@H](O[C@H]9[C@H](O)[C@@H](O)[C@@H](O[C@H]1[C@H](O)[C@H]2O)O[C@@H]9CO)O[C@@H]8CO)O[C@@H]7CO)O[C@@H]6CO)O[C@@H]5CO)O[C@@H]4CO)O[C@@H]3CO [γ-cyclodextrin]	> 1200 mg/kg

Field: next compound
LD50 for OC[C@H]1O[C@@H]2O[C@H]3[C@H](O)[C@@H](O)[C@@H](O[C@H]4[C@H](O)[C@@H](O)[C@@H](O[C@H]5[C@H](O)[C@@H](O)[C@@H](O[C@H]6[C@H](O)[C@@H](O)[C@@H](O[C@H]7[C@H](O)[C@@H](O)[C@@H](O[C@H]1[C@H](O)[C@H]2O)O[C@@H]7CO)O[C@@H]6CO)O[C@@H]5CO)O[C@@H]4CO)O[C@@H]3CO [α-cyclodextrin] ?
> 1200 mg/kg

###

Test: Acute toxicity, LD50 in mice
Format: in vivo, Mouse
Settings: in vivo, ip; intraperitoneal, male mouse
Protocol: Each cyclodextrin (α-, β- and γ-) was administered via the following routes to rats and mice and LD50 was measured.
Measured Property: LD50

Smiles Structure	LD50
OC[C@H]1O[C@@H]2O[C@H]3[C@H](O)[C@@H](O)[C@@H](O[C@H]4[C@H](O)[C@@H](O)[C@@H](O[C@H]5[C@H](O)[C@@H](O)[C@@H](O[C@H]6[C@H](O)[C@@H](O)[C@@H](O[C@H]7[C@H](O)[C@@H](O)[C@@H](O[C@H]8[C@H](O)[C@@H](O)[C@@H](O[C@H]1[C@H](O)[C@H]2O)O[C@@H]8CO)O[C@@H]7CO)O[C@@H]6CO)O[C@@H]5CO)O[C@@H]4CO)O[C@@H]3CO	> 900 mg/kg

LD50 for OC[C@H]1O[C@@H]2O[C@H]3[C@H](O)[C@@H](O)[C@@H](O[C@H]4[C@H](O)[C@@H](O)[C@@H](O[C@H]5[C@H](O)[C@@H](O)[C@@H](O[C@H]6[C@H](O)[C@@H](O)[C@@H](O[C@H]7[C@H](O)[C@@H](O)[C@@H](O[C@H]8[C@H](O)[C@@H](O)[C@@H](O[C@H]9[C@H](O)[C@@H](O)[C@@H](O[C@H]1[C@H](O)[C@H]2O)O[C@@H]9CO)O[C@@H]8CO)O[C@@H]7CO)O[C@@H]6CO)O[C@@H]5CO)O[C@@H]4CO)O[C@@H]3CO ?
> 900 mg/kg

Field entry: OC[C@H]1O[C@@H]2O[C@H]3[C@H](O)[C@@H](O)[C@@H](O[C@H]4[C@H](O)[C@@H](O)[C@@H](O[C@H]5[C@H](O)[C@@H](O)[C@@H](O[C@H]6[C@H](O)[C@@H](O)[C@@H](O[C@H]7[C@H](O)[C@@H](O)[C@@H](O[C@H]1[C@H](O)[C@H]2O)O[C@@H]7CO)O[C@@H]6CO)O[C@@H]5CO)O[C@@H]4CO)O[C@@H]3CO
> 900 mg/kg

###

test: Acute toxicity, LD50 in rats; type: in vivo, rat; settings: in vivo; oral, male rat
Reported LD50 values for a set of compounds

Compound	LD50
OC[C@H]1O[C@@H]2O[C@H]3[C@H](O)[C@@H](O)[C@@H](O[C@H]4[C@H](O)[C@@H](O)[C@@H](O[C@H]5[C@H](O)[C@@H](O)[C@@H](O[C@H]6[C@H](O)[C@@H](O)[C@@H](O[C@H]7[C@H](O)[C@@H](O)[C@@H](O[C@H]8[C@H](O)[C@@H](O)[C@@H](O[C@H]1[C@H](O)[C@H]2O)O[C@@H]8CO)O[C@@H]7CO)O[C@@H]6CO)O[C@@H]5CO)O[C@@H]4CO)O[C@@H]3CO [β-cyclodextrin]	> 12000 mg/kg
OC[C@H]1O[C@@H]2O[C@H]3[C@H](O)[C@@H](O)[C@@H](O[C@H]4[C@H](O)[C@@H](O)[C@@H](O[C@H]5[C@H](O)[C@@H](O)[C@@H](O[C@H]6[C@H](O)[C@@H](O)[C@@H](O[C@H]7[C@H](O)[C@@H](O)[C@@H](O[C@H]1[C@H](O)[C@H]2O)O[C@@H]7CO)O[C@@H]6CO)O[C@@H]5CO)O[C@@H]4CO)O[C@@H]3CO [α-cyclodextrin]	> 12000 mg/kg

Field: next compound
LD50 for OC[C@H]1O[C@@H]2O[C@H]3[C@H](O)[C@@H](O)[C@@H](O[C@H]4[C@H](O)[C@@H](O)[C@@H](O[C@H]5[C@H](O)[C@@H](O)[C@@H](O[C@H]6[C@H](O)[C@@H](O)[C@@H](O[C@H]7[C@H](O)[C@@H](O)[C@@H](O[C@H]8[C@H](O)[C@@H](O)[C@@H](O[C@H]9[C@H](O)[C@@H](O)[C@@H](O[C@H]1[C@H](O)[C@H]2O)O[C@@H]9CO)O[C@@H]8CO)O[C@@H]7CO)O[C@@H]6CO)O[C@@H]5CO)O[C@@H]4CO)O[C@@H]3CO [γ-cyclodextrin] ?
> 12000 mg/kg

###

assay: Acute toxicity, LD50 in rats; format: in vivo, rat; settings: in vivo, sc; subcutaneous, male rat
Reported LD50 values for a set of compounds

Solved entries:
Compound	LD50
OC[C@H]1O[C@@H]2O[C@H]3[C@H](O)[C@@H](O)[C@@H](O[C@H]4[C@H](O)[C@@H](O)[C@@H](O[C@H]5[C@H](O)[C@@H](O)[C@@H](O[C@H]6[C@H](O)[C@@H](O)[C@@H](O[C@H]7[C@H](O)[C@@H](O)[C@@H](O[C@H]1[C@H](O)[C@H]2O)O[C@@H]7CO)O[C@@H]6CO)O[C@@H]5CO)O[C@@H]4CO)O[C@@H]3CO [α-cyclodextrin]	> 1500 mg/kg
OC[C@H]1O[C@@H]2O[C@H]3[C@H](O)[C@@H](O)[C@@H](O[C@H]4[C@H](O)[C@@H](O)[C@@H](O[C@H]5[C@H](O)[C@@H](O)[C@@H](O[C@H]6[C@H](O)[C@@H](O)[C@@H](O[C@H]7[C@H](O)[C@@H](O)[C@@H](O[C@H]8[C@H](O)[C@@H](O)[C@@H](O[C@H]1[C@H](O)[C@H]2O)O[C@@H]8CO)O[C@@H]7CO)O[C@@H]6CO)O[C@@H]5CO)O[C@@H]4CO)O[C@@H]3CO [β-cyclodextrin]	> 1500 mg/kg

Field: next compound
LD50 for OC[C@H]1O[C@@H]2O[C@H]3[C@H](O)[C@@H](O)[C@@H](O[C@H]4[C@H](O)[C@@H](O)[C@@H](O[C@H]5[C@H](O)[C@@H](O)[C@@H](O[C@H]6[C@H](O)[C@@H](O)[C@@H](O[C@H]7[C@H](O)[C@@H](O)[C@@H](O[C@H]8[C@H](O)[C@@H](O)[C@@H](O[C@H]9[C@H](O)[C@@H](O)[C@@H](O[C@H]1[C@H](O)[C@H]2O)O[C@@H]9CO)O[C@@H]8CO)O[C@@H]7CO)O[C@@H]6CO)O[C@@H]5CO)O[C@@H]4CO)O[C@@H]3CO [γ-cyclodextrin] ?
> 1500 mg/kg
